Just for reference, patent US20170290876A1 is where these values come from.

- SYSTEM UNDER TEST: T1, human VEGF (human, UniProt P15692 207-395, biotinylated (site not stated))
- T1 construct: Biotinylated human VEGF generated internally; also called hVEGF; hVEGF-biotin
- T1 sequence: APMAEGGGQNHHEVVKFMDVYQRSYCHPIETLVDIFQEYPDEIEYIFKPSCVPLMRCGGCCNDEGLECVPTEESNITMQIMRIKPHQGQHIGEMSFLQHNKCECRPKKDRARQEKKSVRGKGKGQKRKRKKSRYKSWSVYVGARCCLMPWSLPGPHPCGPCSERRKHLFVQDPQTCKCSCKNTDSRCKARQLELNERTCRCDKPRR
- ASSAY PROCEDURE: Biacore SPR, hVEGF
EXPERIMENTAL ENDPOINT: kon (M⁻¹ s⁻¹)

[[record]]
binder = "NVS4 heavy chain variant D100N (Fab, V domains shown, CDR variant of NVS4) VH: EVQLVESGGGLVQPGGSLRLSCTASGFSLTDYYYMTWVRQAPGKGLEWVGFIDPDDDPYYATWAKGRFTISRDNSKNTLYLQMNSLRAEDTAVYYCAGGNHNSGWGLDIWGQGTLVTVSS VL: EIVMTQSPSTLSASVGDRVIITCQASEIIHSWLAWYQQKPGKAPKLLIYLASTLASGVPSRFSGSGSGAEFTLTISSLQPDDFATYYCQNVYLASTNGANFGQGTKLTVLK"
observed_result = "4.68e+06"

[[record]]
binder = "NVS4 light chain variant I28K (Fab, V domains shown, CDR variant of NVS4) VH: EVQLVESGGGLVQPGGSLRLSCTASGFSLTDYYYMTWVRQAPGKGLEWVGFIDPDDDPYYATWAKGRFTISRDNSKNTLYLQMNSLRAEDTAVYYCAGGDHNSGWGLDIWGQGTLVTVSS VL: EIVMTQSPSTLSASVGDRVIITCQASEKIHSWLAWYQQKPGKAPKLLIYLASTLASGVPSRFSGSGSGAEFTLTISSLQPDDFATYYCQNVYLASTNGANFGQGTKLTVLK"
observed_result = "5.62e+06"

[[record]]
binder = "NVS4 heavy chain variant Y32H (Fab, V domains shown, CDR variant of NVS4; The label Y32H is printed in two rows (r156, r159) with different values) VH: EVQLVESGGGLVQPGGSLRLSCTASGFSLTDHYYMTWVRQAPGKGLEWVGFIDPDDDPYYATWAKGRFTISRDNSKNTLYLQMNSLRAEDTAVYYCAGGDHNSGWGLDIWGQGTLVTVSS VL: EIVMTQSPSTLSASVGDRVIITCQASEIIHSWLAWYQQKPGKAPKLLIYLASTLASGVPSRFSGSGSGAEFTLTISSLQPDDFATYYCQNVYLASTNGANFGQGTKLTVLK"
observed_result = "5.49e+06"

[[record]]
binder = "NVS4 heavy chain variant H101K (Fab, V domains shown, CDR variant of NVS4) VH: EVQLVESGGGLVQPGGSLRLSCTASGFSLTDYYYMTWVRQAPGKGLEWVGFIDPDDDPYYATWAKGRFTISRDNSKNTLYLQMNSLRAEDTAVYYCAGGDKNSGWGLDIWGQGTLVTVSS VL: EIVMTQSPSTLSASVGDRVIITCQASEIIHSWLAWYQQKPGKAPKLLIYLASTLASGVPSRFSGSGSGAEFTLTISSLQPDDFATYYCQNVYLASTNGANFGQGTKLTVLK"
observed_result = "1.3e+06"

[[record]]
binder = "NVS4 light chain variant E27Q (Fab, V domains shown, CDR variant of NVS4) VH: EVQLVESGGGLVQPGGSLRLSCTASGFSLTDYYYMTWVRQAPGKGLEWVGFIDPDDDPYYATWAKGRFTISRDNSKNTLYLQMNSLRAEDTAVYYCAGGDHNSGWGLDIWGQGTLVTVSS VL: EIVMTQSPSTLSASVGDRVIITCQASQIIHSWLAWYQQKPGKAPKLLIYLASTLASGVPSRFSGSGSGAEFTLTISSLQPDDFATYYCQNVYLASTNGANFGQGTKLTVLK"
observed_result = "5.37e+06"

[[record]]
binder = "NVS4 light chain variant H30K (Fab, V domains shown, CDR variant of NVS4) VH: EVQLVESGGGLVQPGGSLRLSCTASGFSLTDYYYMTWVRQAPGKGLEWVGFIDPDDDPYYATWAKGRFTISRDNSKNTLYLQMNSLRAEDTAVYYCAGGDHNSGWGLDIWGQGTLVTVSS VL: EIVMTQSPSTLSASVGDRVIITCQASEIIKSWLAWYQQKPGKAPKLLIYLASTLASGVPSRFSGSGSGAEFTLTISSLQPDDFATYYCQNVYLASTNGANFGQGTKLTVLK"
observed_result = "4.22e+06"

[[record]]
binder = "NVS4 heavy chain variant D55N (Fab, V domains shown, CDR variant of NVS4) VH: EVQLVESGGGLVQPGGSLRLSCTASGFSLTDYYYMTWVRQAPGKGLEWVGFIDPNDDPYYATWAKGRFTISRDNSKNTLYLQMNSLRAEDTAVYYCAGGDHNSGWGLDIWGQGTLVTVSS VL: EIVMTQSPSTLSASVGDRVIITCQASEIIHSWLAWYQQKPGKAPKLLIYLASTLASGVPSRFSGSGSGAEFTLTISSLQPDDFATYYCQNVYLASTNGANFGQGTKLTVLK"
observed_result = "6.35e+06"

[[record]]
binder = "NVS4 heavy chain variant D108N (Fab, V domains shown, CDR variant of NVS4) VH: EVQLVESGGGLVQPGGSLRLSCTASGFSLTDYYYMTWVRQAPGKGLEWVGFIDPDDDPYYATWAKGRFTISRDNSKNTLYLQMNSLRAEDTAVYYCAGGDHNSGWGLNIWGQGTLVTVSS VL: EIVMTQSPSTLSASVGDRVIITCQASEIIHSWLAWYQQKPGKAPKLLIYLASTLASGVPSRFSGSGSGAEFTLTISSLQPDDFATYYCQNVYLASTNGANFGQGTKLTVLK"
observed_result = "5.82e+06"

[[record]]
binder = "NVS4 heavy chain variant D56N (Fab, V domains shown, CDR variant of NVS4) VH: EVQLVESGGGLVQPGGSLRLSCTASGFSLTDYYYMTWVRQAPGKGLEWVGFIDPDNDPYYATWAKGRFTISRDNSKNTLYLQMNSLRAEDTAVYYCAGGDHNSGWGLDIWGQGTLVTVSS VL: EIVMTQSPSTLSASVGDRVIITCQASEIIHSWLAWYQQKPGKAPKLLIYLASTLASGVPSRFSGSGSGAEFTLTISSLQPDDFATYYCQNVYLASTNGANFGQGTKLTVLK"
observed_result = "6.33e+06"

[[record]]
binder = "HC7T (Fab, V domains shown, Tagged heavy chain CDR variant HC7 with NVS4 light chain) VH: EVQLVESGGGLVQPGGSLRLSCTASGFSLTKYYYMTWVRQAPGKGLEWVGFIKPKDKPYKATWAKGRFTISRDNSKNTLYLQMNSLRAEDTAVYYCAGGDHNSGWGLDIWGQGTLVTVSS VL: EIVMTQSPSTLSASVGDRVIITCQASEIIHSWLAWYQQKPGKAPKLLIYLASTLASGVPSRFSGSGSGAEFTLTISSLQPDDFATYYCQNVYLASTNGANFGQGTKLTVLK"
observed_result = "3.37e+08"

